molecular target: T1, HLA-A*01:01 (human); assay: UV-ligand exchange, anti-b2m ELISA
T1 construct: MHC class I monomer first loaded with a UV-sensitive peptide (not identified) that is cleaved by UV irradiation and exchanged for the tested peptide; captured on streptavidin plates, detected with anti-β2m; also called peptide-receptive MHC molecules
# maps each entry to its peptide exchange yield
Measured Attribute: peptide exchange yield

INSERT INTO assay_data (binder, measured_attribute, experimental_result) VALUES
  ('RIEAIRAEY', 'peptide exchange yield', '20 to 50%'),
  ('YADLLIYTY', 'peptide exchange yield', '> 75%'),
  ('YHRICELLSDY', 'peptide exchange yield', '> 75%'),
  ('LADTDLGMTF', 'peptide exchange yield', '20 to 50%'),
  ('ETDWGLLKGHTY', 'peptide exchange yield', '> 75%'),
  ('SRSDFEWVY', 'peptide exchange yield', '20 to 50%');
